Tested on: enzyme producing tartaric acid ether compound
Experiment summary: Substrate specificity of the present enzyme in the presence of (±)-trans-epoxysuccinic acid
Format: biochemical, Aspergillus oryzae
Assay setup: substrate in the presence of (±)-trans-epoxysuccinic acid; decrement of genistein as substrate expressed as 100
Metric name: Relative activity (%)
# unit: % | format: bare number

Before answering, review these 3 worked examples.
Compound	Tested system	Measurement units	Meas value
O=c1c(O)c(-c2ccc(O)cc2)oc2cc(O)cc(O)c12	enzyme producing tartaric acid ether compound	%	278
O=c1cc(-c2ccc(O)cc2)oc2cc(O)cc(O)c12	enzyme producing tartaric acid ether compound	%	92
O=C1c2c(O)cc(O)cc2O[C@H](c2ccc(O)c(O)c2)[C@H]1O [(+)-taxifolin]	enzyme producing tartaric acid ether compound	%	106

What does the record list as Relative activity (%) for "O=c1c(O)c(-c2ccc(O)c(O)c2)oc2cc(O)cc(O)c12" ?
31

###

Test system: enzyme producing tartaric acid ether compound
Experiment summary: Substrate specificity of the present enzyme in the presence of (±)-trans-epoxysuccinic acid
Assay type: biochemical, Aspergillus oryzae
Assay setup: substrate in the presence of (±)-trans-epoxysuccinic acid; decrement of genistein as substrate expressed as 100
Metric name: Relative activity (%)
# unit: % | format: bare number

Before answering, review these 5 worked examples.
Compound	Tested system	Relative activity (%)
COc1ccc(-c2coc3cc(O)cc(O)c3c2=O)cc1	enzyme producing tartaric acid ether compound	86
O=c1c(-c2ccc(O)cc2)coc2cc(O)c(O)cc12 [4',6,7-trihydroxyisoflavone]	enzyme producing tartaric acid ether compound	182
O=c1cc(-c2ccccc2)oc2cc(O)c(O)c(O)c12	enzyme producing tartaric acid ether compound	321
COc1cc(C(=O)O)ccc1O	enzyme producing tartaric acid ether compound	4
O=C(/C=C/c1ccc(O)c(O)c1)c1c(O)cc(O)cc1O [2',4',6',3,4-pentahydroxychalcone]	enzyme producing tartaric acid ether compound	115

What does the record list as Relative activity (%) for "O=c1c(-c2ccc(O)cc2)coc2cc(O)ccc12" ?
52

What does the record list as Relative activity (%) for "O=C1/C(=C/c2ccc(O)c(O)c2)Oc2cc(O)ccc21" ?
316

What does the record list as Relative activity (%) for Oc1cc(O)c2c(c1)OC(c1ccc(O)c(O)c1)C(O)C2 (centres unmarked) ?
16

###

Test system: enzyme producing tartaric acid ether compound
Experiment summary: Influence of metallic ions on the action of the present enzyme
Type: biochemical, Aspergillus oryzae
Assay setup: 20 mM metallic ion; activity with no addition = 100%
Metric name: Relative activity (%)

Before answering, review these 5 worked examples.
Compound	Relative activity (%)
[Fe+2] [Fe^2+]	125%
[Ni+2] [Ni^2+]	198%
[Mg+2] [Mg^2+]	220%
[Zn+2] [Zn^2+]	416%
[Ca+2] [Ca^2+]	140%

What does the record list as Relative activity (%) for [Mn+2] [Mn^2+] ?
268%

What does the record list as Relative activity (%) for [Cu+2] [Cu^2+] ?
0%

What does the record list as Relative activity (%) for [Co+2] [Co^2+] ?
236%

###

Test system: enzyme producing tartaric acid ether compound
Experiment summary: Influence of metallic ions on the action of the present enzyme
Format: biochemical, Aspergillus oryzae
Assay setup: presence of the ion or EDTA
Description: "Relative activity (%)" in Table 2 is the value relative to the activity (expressed as 100) observed when no metallic ion was added. The activity observed with no addition of metallic ions was expressed as 100%.
Counter-ions that a name gives are not always drawn.
Metric name: Influence on the activity of the present enzyme (in words)

Before answering, review these 8 worked examples.
Molecule	Meas value
[Mg+2]	enhanced
[Mn+2]	enhanced
[Ca+2]	enhanced
[Cu+2]	greatly inhibited
O=C(O)CN(CCN(CC(=O)O)CC(=O)O)CC(=O)O [EDTA, disodium salt]	greatly inhibited
[Zn+2]	enhanced
[Ni+2]	enhanced
[Co+2]	enhanced

What does the record list as Influence on the activity of the present enzyme (in words) for "[Fe+2]" ?
enhanced
